# System: HB3
# ASSAY SUMMARY: qHTS profiling for inhibitors of Plasmodium falciparum proliferation (AID 504749); further: nearly all actives have a fitted effect of over 60% in size
# MEASUREMENT CONDITIONS: P. falciparum in erythrocytes, SYBR Green DNA, 72 h; series mostly up to 28.7 µM
Inconclusive results are not listed. Calls of active or inactive are those of the source. The call rests on the fitted dose curve; in most records, active means well fitted inhibition curve with a large enough effect; inconclusive means small, poorly fitted or top-dose-only effect; inactive means flat fitted curve, though single readings scatter.
Respond using exactly one of the listed classes: 1 = active, 0 = inactive

## Input Outcome logged for Cc1ccc(O)c([C@H](CCN(C(C)C)C(C)C)c2ccccc2)c1 in this assay:
## Output 1

## Input Proceed to CCCCC(CC)COC(=O)c1ccc(N(C)C)cc1 (stereo not given)
## Output 0

## Input Proceed to CN1CCN(c2c(F)cc3c(=O)c(C(=O)O)cn4c3c2SCC4)CC1
## Output 0

## Input Proceed to O=C(O)CCC(=O)Nc1ccc(S(=O)(=O)Nc2nccs2)cc1
## Output 0

## Input Proceed to Cc1ncc(CO)c(C=O)c1O
## Output 0

## Input Proceed to CCOc1ccc(NC(C)=O)cc1
## Output 0

## Input Proceed to CN1CCN(C2=Nc3ccccc3Sc3ccc(Cl)cc32)CC1
## Output 0

## Input Proceed to COP(=O)(OC)OC(c1ccc(Cl)cc1)P(=O)(OC)OC (stereo not given)
## Output 0

## Input Proceed to CC(C)NCC(O)c1ccc2ccccc2c1 (stereo not given)
## Output 1

## Input Proceed to CC(=O)NO
## Output 0

---

# ASSAY SUMMARY: Cell Viability - LYMP1-002 - Assay at 40 hr (AID 994); further: nearly all actives have a fitted effect of over 60% in size
# MEASUREMENT CONDITIONS: LYMP1-002 lymphoblastoid cell viability; series mostly up to 92.2 µM
Records with an inconclusive call do not appear. The source made the active and inactive calls. Calls follow the shape of the dose curve; as a rule, active = well fitted cell-killing curve with a large enough effect; inconclusive = small, poorly fitted or top-dose-only effect; inactive = flat fitted curve, though single readings scatter.
Respond using exactly one of the listed classes: t (active), f (inactive)

## Input Outcome logged for COc1ccc(C(Cl)=C(c2ccc(OC)cc2)c2ccc(OC)cc2)cc1 in this assay:
## Output f

## Input Proceed to CCCCC(CC)COC(=O)c1ccc(N(C)C)cc1 (stereo not drawn)
## Output f

## Input Proceed to NC(=O)c1ccccc1O
## Output f

## Input Proceed to Oc1c(Cl)cc(Cl)c(Cl)c1Cc1c(O)c(Cl)cc(Cl)c1Cl
## Output t

## Input Proceed to C=C[C@H]1CN2CC[C@H]1C[C@@H]2[C@@H](O)c1ccnc2ccc(OC)cc12
## Output f

## Input Proceed to COc1ccc(C(=O)c2ccccc2)c(O)c1
## Output f

## Input Proceed to OC[C@H]1O[C@@H]2O[C@H]3[C@H](O)[C@@H](O)[C@@H](O[C@H]4[C@H](O)[C@@H](O)[C@@H](O[C@H]5[C@H](O)[C@@H](O)[C@@H](O[C@H]6[C@H](O)[C@@H](O)[C@@H](O[C@H]7[C@H](O)[C@@H](O)[C@@H](O[C@H]8[C@H](O)[C@@H](O)[C@@H](O[C@H]1[C@H](O)[C@H]2O)O[C@@H]8CO)O[C@@H]7CO)O[C@@H]6CO)O[C@@H]5CO)O[C@@H]4CO)O[C@@H]3CO
## Output f

## Input Proceed to CCOc1ccc(NC(C)=O)cc1
## Output f

---

# Test system: ATS95
# ASSAY SUMMARY: qHTS profiling for inhibitors of Plasmodium falciparum proliferation (AID 504749); further: nearly all actives have a fitted effect of over 60% in size
# MEASUREMENT CONDITIONS: P. falciparum in erythrocytes, SYBR Green DNA, 72 h; series mostly up to 28.7 µM
Records with an inconclusive call do not appear. Calls of active or inactive are those of the source. The call rests on the fitted dose curve; in most records, active means well fitted inhibition curve with a large enough effect; inconclusive means small, poorly fitted or top-dose-only effect; inactive means flat fitted curve, though single readings scatter.
Respond using exactly one of the listed classes: YES = active, NO = inactive

## Input Outcome logged for CCCCCCCCNC(C)C(O)c1ccc(SC(C)C)cc1 (stereo unspecified) in this assay:
## Output YES

## Input Proceed to CCOC(=O)c1ccc(N)cc1
## Output NO

## Input Proceed to NC(=O)C1(N2CCCCC2)CCN(CCCC(=O)c2ccc(F)cc2)CC1
## Output NO

## Input Proceed to O=C(Nc1cccc(C2=NCCN2)c1)Nc1cccc(C2=NCCN2)c1
## Output YES

## Input Proceed to OCCOCCN1CCN(C2=Nc3ccccc3Sc3ccccc32)CC1
## Output NO

## Input Proceed to Cc1ncc(CO)c(C=O)c1O
## Output NO
